- targetOfAssay: Env of HIV-1 strain YU2.DG (HIV-1)
- protocol: cell-based or functional assay

binder: γ3κ11 (antibody, V domains shown) VH: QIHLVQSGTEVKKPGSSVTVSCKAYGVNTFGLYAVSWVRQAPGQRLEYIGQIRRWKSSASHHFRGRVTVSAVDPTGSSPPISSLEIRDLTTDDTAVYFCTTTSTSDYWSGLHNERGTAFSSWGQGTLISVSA VL: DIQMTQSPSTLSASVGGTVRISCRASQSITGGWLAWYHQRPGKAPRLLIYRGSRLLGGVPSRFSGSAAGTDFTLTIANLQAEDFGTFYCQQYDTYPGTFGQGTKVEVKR
neutralization IC50: 0.276 µg/mL
--
binder: γ59κ11 (antibody, V domains shown) VH: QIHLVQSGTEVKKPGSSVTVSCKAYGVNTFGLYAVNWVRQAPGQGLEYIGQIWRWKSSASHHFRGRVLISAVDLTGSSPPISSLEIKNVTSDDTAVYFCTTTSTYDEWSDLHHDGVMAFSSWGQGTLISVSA VL: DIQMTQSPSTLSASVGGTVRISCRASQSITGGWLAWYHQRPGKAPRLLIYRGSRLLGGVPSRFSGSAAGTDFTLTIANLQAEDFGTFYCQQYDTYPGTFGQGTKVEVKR
neutralization IC50: 6.91 µg/mL

From: patent US20180171001A1
